Recorded measurements of percentage reduction of b-hBSSL binding to CD14+ monocytes, one per entry
Biological target: T1, Biotinylated human BSSL (human, UniProt P19835 21-753, Biotinylated on glycosacarides, 30-40 biotin/BSSL)
T1 construct: hBSSL biotinylated in house; also called b-hBSSL; human BSSL-biotin
T1 sequence: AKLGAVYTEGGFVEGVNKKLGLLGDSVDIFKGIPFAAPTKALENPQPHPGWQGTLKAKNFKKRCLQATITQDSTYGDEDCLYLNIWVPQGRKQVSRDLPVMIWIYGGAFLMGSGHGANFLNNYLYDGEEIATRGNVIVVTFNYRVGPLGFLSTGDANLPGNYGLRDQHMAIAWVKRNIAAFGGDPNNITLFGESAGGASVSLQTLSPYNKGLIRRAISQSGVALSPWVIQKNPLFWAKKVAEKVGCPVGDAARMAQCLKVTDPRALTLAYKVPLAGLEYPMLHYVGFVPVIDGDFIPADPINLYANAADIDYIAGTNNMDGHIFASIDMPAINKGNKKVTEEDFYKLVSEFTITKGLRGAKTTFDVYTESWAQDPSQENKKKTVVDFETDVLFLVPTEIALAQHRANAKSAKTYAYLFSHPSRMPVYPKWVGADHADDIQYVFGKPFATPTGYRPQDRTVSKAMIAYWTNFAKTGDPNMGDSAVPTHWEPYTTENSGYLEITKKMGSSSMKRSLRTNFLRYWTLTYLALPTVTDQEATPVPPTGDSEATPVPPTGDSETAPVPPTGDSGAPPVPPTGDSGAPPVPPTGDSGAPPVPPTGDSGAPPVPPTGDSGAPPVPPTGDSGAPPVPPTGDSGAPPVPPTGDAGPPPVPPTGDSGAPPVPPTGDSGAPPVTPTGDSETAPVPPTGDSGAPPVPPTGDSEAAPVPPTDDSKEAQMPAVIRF
Test: flow cytometry displacement assay; 0.5 ug antibody, 1 ug b-hBSSL
The figure you give is taken to be in %; do not add the unit.

INSERT INTO measurements (binder, readout_units, assay_value) VALUES
  ('AS20 mouse IgG1 (antibody, V domains shown, also called AS20 mlgG1; AS20 mIgG1) VH: QVQLQQPGAELVKPGASVKMSCKASGYTFTSYNMHWVKQTPGQGLEWIGVIYPGNGDTSYNQKFKGKATLTADKSSSTAYMQLSSLTSEDSAVYYCARDYYGSSPLGYWGQGTTLTVSS VL: QIVLTQSPAVMSASPGEKVTMTCSASSSISYMHWYQQKPGTSPKRWIYDTSKLASGVPARFSGSGSGTSYSLTISSMEAEDAATYYCHQRSSYPTFGGGTKLEIK', '%', 31),
  ('S-SL048-65 hIgG4 S228P (antibody, V domains shown, Tested as human IgG4 S228P) VH: QVQLVQSGAEVKKPGASVKVSCKASGYTFTSYNMHWVRQAPGQGLEWIGVINPGDGATSYAQKFKGRVTMTRDTSTSTVYMELSSLRSEDTAVYYCARDYYGSSPLGYWGQGTLVTVSS VL: DIQMTQSPSSLSASVGDRVTITCSASQSISYLNWYQQKPGKAPKLLIYDASSLPSGVPSRFSGSGSGTDFTLTISSLQPEDFATYYCHQRSSSPTFGQGTKLEIK', '%', 5),
  ('S-SL048-41 hIgG4 S228P (antibody, V domains shown, Tested as human IgG4 S228P) VH: QVQLVQSGAEVKKPGASVKVSCKASGYTFTSYNMHWVRQAPGQGLEWIGVIYPGDGATSYAQKFKGRVTMTRDTSTSTVYMELSSLRSEDTAVYYCARDYYGSSPLGYWGQGTLVTVSS VL: DIQMTQSPSSLSASVGDRVTITCRASSSISYMNWYQQKPGKAPKLLIYATSRLPSGVPSRFSGSGSGTDFTLTISSLQPEDFATYYCHQRSSSPTFGQGTKLEIK', '%', 12);

Q: What measured percentage reduction of b-hBSSL binding to CD14+ monocytes goes with S-SL048-38 hIgG4 S228P (antibody, V domains shown, Tested as human IgG4 S228P) VH: QVQLVQSGAEVKKPGASVKVSCKASGYTFTSYNMHWVRQAPGQGLEWMGVINPGDGATSYAQKFQGRVTMTRDTSTSTVYMELSSLRSEDTAVYYCARDYYGSSPLGYWGQGTLVTVSS VL: DIQMTQSPSSLSASVGDRVTITCRASPSISYLNWYQQKPGKAPKLLIYATSSLASGVPSRFSGSGSGTDFTLTISSLQPEDFATYYCQQRSSSPTFGQGTKLEIK ?
Ans: 6

Q: So what's the measured percentage reduction of b-hBSSL binding to CD14+ monocytes for this one? S-SL048-66 hIgG4 S228P (antibody, V domains shown, Tested as human IgG4 S228P) VH: QVQLVQSGAEVKKPGASVKVSCKASGYTFTSYNMHWVRQAPGQGLEWMGVINPGDGATSYNQKFKGRVTMTRDTSTSTVYMELSSLRSEDTAVYYCARDYYGSSPLGYWGQGTLVTVSS VL: DIQMTQSPSSLSASVGDRVTITCSASQSISYMNWYQQKPGKAPKLLIYDASSLASGVPSRFSGSGSGTDFTLTISSLQPEDFATYYCHQRSSTPTFGQGTKLEIK
Ans: 12
